Method: protein stability index of a GFP-peptide fusion (yeast GPS) (PSI 1-4); higher = more stable; sorted into four equal gates, so the index is relative within each strain
Measurement parameters: ubr1∆
Values of protein stability index greater than or equal to 3 map to Satisfied; values below map to Not satisfied.

Residue sequence	Assigned category
SGEKIDFLLSDWNKRFS [BRR2]	Not satisfied
VKKPHRYKPGTVALREI [HHT1]	Satisfied
KVLRKFRVQSQSNYGIY [NUT1]	Not satisfied
NMFGDYSNEPFNTNFDD [SNF6]	Not satisfied
FNTLVRIMSTRCMMAAQ [DIS3]	Not satisfied
AKSTVETFISSMTATAD [RIP1]	Not satisfied
KSPPQFFYNISSIHWNN [SIN4]	Not satisfied
DEGMESIEMEEETDDED [RRI2]	Satisfied
ETELPTLSLPDSQDYIL [SMC1]	Satisfied
MNAILTDVKLTLPQPRL [SMD1]	Satisfied
ALALYVDAYRRLENKLS [SRP68]	Not satisfied
AKHAVSEGTRAVTKYSS [HTB1]	Satisfied
DELITEGNEKLAAVPAA [RPP2A]	Not satisfied
PKELVPSHEKLKESYSQ [CDC53]	Not satisfied
GSKMEAKNEDDPAHSLN [AAR2]	Not satisfied
VPRAALEERFDPKSPTK [YMR129W/POM152]	Satisfied
ATNRPDTLDPALLRPGR [RPT4]	Satisfied
VIELPLKNPEIFQRVGI [RPT4]	Not satisfied
SVRIDGRKVLQKVQGES [SIR4]	Not satisfied
LSLGMDFIKFDQIAVCE [BRN1]	Not satisfied
IVAQSEVEVSTRDLFDL [RPO31]	Satisfied
YHFPIFNKYADPTLTTT [RPN4]	Not satisfied
EFTKINTPLVGAAFKVI [YJL039C/NUP192]	Not satisfied
QFVPELKEFTAKLRKEL [FAS2]	Not satisfied
DIDDELNELETLIKKKQ [SMC2]	Satisfied
RVRTDDSVLLNRGNKKR [YML031W/NDC1]	Satisfied
EVTDKNYYYLFDKKSFF [PRP8]	Not satisfied
RLKQVFNRALDQSISKL [NNF1]	Not satisfied
ELENNEFTENELNVDSM [ITC1]	Satisfied
GGQGNTDDYFEELRDLY [FAS1]	Satisfied
VKNKYNVGKQLSNEIIY [PRP28]	Not satisfied
STGAADGGYNAQLAKAK [SMC2]	Satisfied
LTKKYSFKIFVDVLVIS [RRP42]	Not satisfied
YSEHLKPYDINVVLVTN [DIS3]	Not satisfied
TFKSVSKYGMLLLRCDD [POP3]	Not satisfied
AQFLRSVVHPGEMVGVL [RPO21]	Not satisfied
LEPFLLMLEDTDGDSIL [BRR2]	Satisfied
SNLQRAQNVPMNIIQQQ [GAL11]	Not satisfied
MGNTKVHCRISCQIAQP [RRP45]	Not satisfied
VPMKEENLEESFLSKHA [SSN2]	Satisfied
SRPDILSKIKFPESIWK [YCG1]	Not satisfied
DKQARKQRTKKEDKSEA [SNF2]	Satisfied
DGTGVRVIVAGTLDINP [FAS1]	Not satisfied
PLLRKVVDRESDIPKTT [PRE4]	Not satisfied
AHLAEIQLNGGSISEKV [RPL3]	Not satisfied
LNWFRTTNMNVNNCIWA [RGR1]	Not satisfied
TVLCTPTGGKAKLSEGT [RPS27B]	Satisfied
EGLNQRNQVQTENVAQA [YGR119C/NUP57]	Not satisfied
SSPSHIELVVTEKEEAV [RPL17A]	Not satisfied
VDEPMTSAVELGAIEQI [YJL039C/NUP192]	Not satisfied
EAMYKLQLASLQQKQRD [SMC3]	Not satisfied
KPQRTNTLRMKHGTYDK [RPB2]	Not satisfied
NFKGLAKEKERMLEEAI [YIL149C/MLP2]	Satisfied
